test system: p38MAPKγ (MAPK12) (Homo sapiens, UniProt P53778)
Construct: purchased Life Technologies
Sequence (P53778 1-367): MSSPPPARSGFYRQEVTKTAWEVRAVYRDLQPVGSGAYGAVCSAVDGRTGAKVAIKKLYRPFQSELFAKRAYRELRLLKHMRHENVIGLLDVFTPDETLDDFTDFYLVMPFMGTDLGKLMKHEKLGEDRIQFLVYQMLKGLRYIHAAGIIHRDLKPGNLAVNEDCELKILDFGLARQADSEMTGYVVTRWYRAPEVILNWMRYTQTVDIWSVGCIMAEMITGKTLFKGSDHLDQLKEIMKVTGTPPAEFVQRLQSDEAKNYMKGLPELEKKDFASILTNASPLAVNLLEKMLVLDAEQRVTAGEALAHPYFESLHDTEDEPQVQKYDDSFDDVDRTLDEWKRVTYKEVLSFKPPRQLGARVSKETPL
protocol details: p38 MAPKγ enzyme inhibition (Z-LYTE FRET)
Assay type: biochemical
assay setup: Table 2B, unit inferred; read-out: p38 MAPKγ (Enzyme Profile)
Description: The enzyme inhibitory activities of compounds disclosed herein were determined by FRET using synthetic peptides labelled with both donor and acceptor fluorophores (Z-LYTE, Life Technologies, Paisley, UK). The inhibitory activities of compounds of the invention against p38MAPKγ (MAPK12: Life Technologies), were evaluated by determining the level of activation/phosphorylation of the target peptide. […]
pIC50: −log10 of the molar value.

{"columns": ["chem smiles", "result operator", "pIC50"],
 "data": [
  ["Cc1ccc(-n2nc(C(C)(C)C)cc2NC(=O)Nc2ccc(OCc3ccnc(Nc4cncc(N5CCCC5)n4)c3)c3ccccc23)cc1", "=", 6.82],
  ["COc1ccc(-n2nc(C(C)(C)C)cc2NC(=O)Nc2ccc(OCc3ccnc(Nc4cncc(N(C)C)n4)c3)c3ccccc23)cc1", "=", 6.65],
  ["CCc1ccc(-n2nc(C(C)(C)C)cc2NC(=O)Nc2ccc(OCc3ccnc(Nc4cnc(C)c(C)n4)c3)c3ccccc23)cc1", "<", 4.81],
  ["Cc1ccc(-n2nc(C(C)(C)C)cc2NC(=O)Nc2ccc(OCc3ccnc(Nc4cnc(C(=O)N5C[C@@H](O)[C@H](O)C5)cn4)c3)c3ccccc23)cc1", "=", 7.29],
  ["COC(=O)N1CCN(CCNC(=O)c2cnc(Nc3cc(COc4ccc(NC(=O)Nc5cc(C(C)(C)C)nn5-c5ccc(C)cc5)c5ccccc45)ccn3)cn2)CC1", "=", 6.75],
  ["COCCOc1ccc(-n2nc(C(C)(C)C)cc2NC(=O)Nc2ccc(OCc3ccnc(Nc4cnccn4)c3)c3ccccc23)cc1C", "<", 4.83],
  ["COc1cncc(Nc2cc(COc3ccc(NC(=O)Nc4cc(C(C)(C)C)nn4-c4csc(C)c4)c4ccccc34)ccn2)n1", "=", 5.49],
  ["Cc1ccc(-n2nc(C(C)(C)C)cc2NC(=O)Nc2ccc(OCc3ccnc(Nc4cnc(C(=O)NCCn5ccnc5C)cn4)c3)c3ccccc23)cc1", "=", 7.08],
  ["Cc1ccc(-n2nc(C(C)(C)C)cc2NC(=O)Nc2ccc(OCc3ccnc(Nc4cnc(C(=O)N5CC[C@@H](F)C5)cn4)c3)c3ccccc23)cc1", "=", 5.77],
  ["CC(=O)N1CCN(CCNC(=O)c2cnc(Nc3cc(COc4ccc(NC(=O)Nc5cc(C(C)(C)C)nn5-c5ccc(C)cc5)c5ccccc45)ccn3)cn2)CC1", "=", 7.34],
  ["Cc1ccc(-n2nc(C(C)(C)C)cc2NC(=O)Nc2ccc(OCc3ccnc(Nc4cnc(C(=O)N5CCNC(=O)CC5)cn4)c3)c3ccccc23)cc1", "=", 7.32]
]}

----------
List of IC50 values.
test system: p38 MAPKα isoform (MAPK14) (Homo sapiens, UniProt Q16539)
Construct: purchased Life Technologies
Sequence (Q16539 whole entry, canonical isoform): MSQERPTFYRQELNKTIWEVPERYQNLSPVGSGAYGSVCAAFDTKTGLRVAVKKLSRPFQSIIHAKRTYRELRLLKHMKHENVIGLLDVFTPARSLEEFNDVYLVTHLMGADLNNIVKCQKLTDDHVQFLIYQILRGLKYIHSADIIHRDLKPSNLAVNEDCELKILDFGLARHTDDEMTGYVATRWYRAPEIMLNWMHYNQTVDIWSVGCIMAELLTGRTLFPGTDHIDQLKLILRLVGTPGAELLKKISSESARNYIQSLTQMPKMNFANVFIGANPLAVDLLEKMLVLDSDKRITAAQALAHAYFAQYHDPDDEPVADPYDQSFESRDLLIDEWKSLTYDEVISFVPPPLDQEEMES
protocol details: p38 MAPKα enzyme inhibition (Z-LYTE FRET)
Type: biochemical
assay setup: Table 2B, unit inferred; read-out: p38 MAPKα (Enzyme Profile)
reported endpoint: IC50 (µM)

{"columns": ["chem smiles", "measurement unit", "experimental result"],
 "data": [
  ["COc1cc(F)cc(-n2nc(C(C)(C)C)cc2NC(=O)Nc2ccc(OCc3ccnc(Nc4cnc(C(=O)N5CCCC5)cn4)c3)c3ccccc23)c1", "µM", 0.011],
  ["COc1cc(-n2nc(C(C)(C)C)cc2NC(=O)Nc2ccc(OCc3ccnc(Nc4cnccn4)c3)c3ccccc23)ccc1C", "µM", 0.015],
  ["Cc1cccc(-n2nc(C(C)(C)C)cc2NC(=O)Nc2ccc(OCc3ccnc(Nc4cnc(C)c(C)n4)c3)c3ccccc23)c1", "µM", 0.018],
  ["CCNC(=O)c1cnc(Nc2cc(COc3ccc(NC(=O)Nc4cc(C(C)(C)C)nn4-c4ccc(C)cc4)c4ccccc34)ccn2)cn1", "µM", 0.047]
]}

----------
test system: p38 MAPKα isoform (MAPK14) (Homo sapiens)
Construct: purchased Life Technologies
protocol details: p38 MAPKα enzyme inhibition (Z-LYTE FRET)
Type: biochemical
assay setup: Table 2B, unit inferred; read-out: p38 MAPKα (Enzyme Profile)
Let's look at some molecules and their measured IC50.

{"columns": ["molecule", "IC50"],
 "data": [
  ["COc1cc(-n2nc(C(C)(C)C)cc2NC(=O)Nc2ccc(OCc3ccnc(Nc4cnc(C(=O)N5CCCC5)cn4)c3)c3ccccc23)ccc1C [Example 226]", "35 nM"],
  ["Cc1cc(-n2nc(C(C)(C)C)cc2NC(=O)Nc2ccc(OCc3ccnc(Nc4cnccn4)c3)c3ccccc23)ccn1 [Example 265]", "11 nM"],
  ["CCOc1cccc(-n2nc(C(C)(C)C)cc2NC(=O)Nc2ccc(OCc3ccnc(Nc4cnccn4)c3)c3ccccc23)c1 [Example 184]", "19 nM"],
  ["COCC(=O)Nc1cncc(Nc2cc(COc3ccc(NC(=O)Nc4cc(C(C)(C)C)nn4-c4ccc(C)cc4)c4ccccc34)ccn2)n1 [Example 107]", "27 nM"],
  ["COc1cccc(-n2nc(C(C)(C)C)cc2NC(=O)Nc2ccc(OCc3ccnc(Nc4cnc(CO)cn4)c3)c3ccccc23)c1 [Example 178]", "5.8 nM"],
  ["Cc1ncc(Nc2cc(COc3ccc(NC(=O)Nc4cc(C(C)(C)C)nn4-c4cccc(F)c4)c4ccccc34)ccn2)nc1C [Example 169]", "26 nM"],
  ["COCCCc1cncc(Nc2cc(COc3ccc(NC(=O)Nc4cc(C(C)(C)C)nn4-c4ccc(C)cc4)c4ccccc34)ccn2)n1 [Example 153]", "20 nM"],
  ["Cc1ccc(-n2nc(C(C)(C)C)cc2NC(=O)Nc2ccc(OCc3ccnc(Nc4cnc(C(=O)NCCN5CCCCC5)cn4)c3)c3ccccc23)cc1 [Example 79]", "< 0.4 nM"],
  ["CSc1ccc(-n2nc(C(C)(C)C)cc2NC(=O)Nc2ccc(OCc3ccnc(Nc4cnccn4)c3)c3ccccc23)cc1 [Example 149]", "13 nM"],
  ["CCc1cncc(Nc2cc(COc3ccc(NC(=O)Nc4cc(C(C)(C)C)nn4-c4ccc(C)c(F)c4)c4ccccc34)ccn2)n1 [Example 167]", "25 nM"],
  ["Cc1ccc(-n2nc(C(C)(C)C)cc2NC(=O)Nc2ccc(OCc3ccnc(Nc4cncc(C5CC5)n4)c3)c3ccccc23)cc1C [Example 145]", "43 nM"],
  ["Cc1ccc(-n2nc(C(C)(C)C)cc2NC(=O)Nc2ccc(OCc3ccnc(Nc4cnc(C(=O)N5CCN(C)C(=O)C5)cn4)c3)c3ccccc23)cc1 [Example 244]", "3 nM"],
  ["CN(C)c1cncc(Nc2cc(COc3ccc(NC(=O)Nc4cc(C(C)(C)C)nn4-c4ccc(O)cc4)c4ccccc34)ccn2)n1 [Example 115]", "7.5 nM"],
  ["CCc1ccc(-n2nc(C(C)(C)C)cc2NC(=O)Nc2ccc(OCc3ccnc(Nc4cnc(C(=O)N5CCCC5)cn4)c3)c3ccccc23)cc1 [Example 229]", "27 nM"],
  ["CCc1ncc(Nc2cc(COc3ccc(NC(=O)Nc4cc(C(C)(C)C)nn4-c4ccc(C)cc4)c4ccccc34)ccn2)nc1C [Example 129]", "40 nM"],
  ["COc1cccc(-n2nc(C(C)(C)C)cc2NC(=O)Nc2ccc(OCc3ccnc(Nc4cnc(C)c(C)n4)c3)c3ccccc23)c1 [Example 170]", "35 nM"],
  ["COCCOc1ccc(-n2nc(C(C)(C)C)cc2NC(=O)Nc2ccc(OCc3ccnc(Nc4cnccn4)c3)c3ccccc23)cc1C [Example 157]", "23 nM"]
]}

----------
test system: p38MAPKγ (MAPK12) (Homo sapiens, UniProt P53778)
Construct: purchased Life Technologies
protocol details: p38 MAPKγ enzyme inhibition (Z-LYTE FRET)
Type: biochemical
assay setup: Table 2B, unit inferred; read-out: p38 MAPKγ (Enzyme Profile)
Description: The enzyme inhibitory activities of compounds disclosed herein were determined by FRET using synthetic peptides labelled with both donor and acceptor fluorophores (Z-LYTE, Life Technologies, Paisley, UK). The inhibitory activities of compounds of the invention against p38MAPKγ (MAPK12: Life Technologies), were evaluated by determining the level of activation/phosphorylation of the target peptide. […]
Output label 1 for records whose IC50 is lower than 0.2 µM, label 0 for records at or above 0.2 µM.

{"columns": ["chem smiles", "test system", "discrete label"],
 "data": [
  ["COCc1cnc(Nc2cc(COc3ccc(NC(=O)Nc4cc(C(C)(C)C)nn4-c4ccc(C)cc4)c4ccccc34)ccn2)cn1", "p38MAPKγ (MAPK12) (Homo sapiens, UniProt P53778)", "label 0"],
  ["CCc1cnc(Nc2cc(COc3ccc(NC(=O)Nc4cc(C(C)(C)C)nn4-c4cccc(C)c4)c4ccccc34)ccn2)cn1", "p38MAPKγ (MAPK12) (Homo sapiens, UniProt P53778)", "label 0"],
  ["Cc1ccc(-n2nc(C(C)(C)C)cc2NC(=O)Nc2ccc(OCc3ccnc(Nc4cnc(C(=O)NCc5nccn5C)cn4)c3)c3ccccc23)cc1", "p38MAPKγ (MAPK12) (Homo sapiens, UniProt P53778)", "label 0"],
  ["Cc1ccc(-n2nc(C(C)(C)C)cc2NC(=O)Nc2ccc(OCc3ccnc(Nc4cnc(C(=O)N5CC[C@H](O)C5)cn4)c3)c3ccccc23)cc1", "p38MAPKγ (MAPK12) (Homo sapiens, UniProt P53778)", "label 1"],
  ["CC(C)(C)c1cc(NC(=O)Nc2ccc(OCc3ccnc(Nc4cnccn4)c3)c3ccccc23)n(-c2cccc(CCO)c2)n1", "p38MAPKγ (MAPK12) (Homo sapiens, UniProt P53778)", "label 1"],
  ["CC(C)(C)c1cc(NC(=O)Nc2ccc(OCc3ccnc(Nc4cnccn4)c3)c3ccccc23)n(-c2ccccc2)n1", "p38MAPKγ (MAPK12) (Homo sapiens, UniProt P53778)", "label 1"]
]}
